Cited source: BigSolDB 2.1

stated_conditions: in n-butanol, 293.15 K
measured_metric: solubility (mole fraction)

{"entry_smiles": "OC[C@H]1O[C@@H](Oc2ccc(O)cc2)[C@H](O)[C@@H](O)[C@@H]1O", "meas_value": 0.000566}

---

stated_conditions: in ethylene glycol, 288.15 K

{"entry_smiles": "OC[C@H]1O[C@@H](Oc2ccc(O)cc2)[C@H](O)[C@@H](O)[C@@H]1O", "solubility (mole fraction)": 0.0486}

---

stated_conditions: in n-propanol, 313.15 K
measured_metric: solubility (mole fraction)

{"entry_smiles": "OC[C@H]1O[C@@H](Oc2ccc(O)cc2)[C@H](O)[C@@H](O)[C@@H]1O", "meas_value": 0.00181}

---

stated_conditions: in acetonitrile, 323.15 K
measured_metric: solubility (mole fraction)

{"entry_smiles": "OC[C@H]1O[C@@H](Oc2ccc(O)cc2)[C@H](O)[C@@H](O)[C@@H]1O", "measured_metric": "solubility (mole fraction)", "meas_value": 0.000362}
